- System: HCV replicon (Genotype 1b)
- protocol description: Luciferase genotype 1b replicon potency assay
- measurement conditions: Hepatitis C virus, GETYPE1B, read-out: IC50 μM, HCV genotype 1b luciferase replicon, Renilla luciferase reporter
Entries and their IC50
Give just the numeric value; µM need not be written.

Worked cases, IC50 given:
COc1nc(N)nc2c1ncn2C1O[C@H](COP(=O)(N[C@@H](C(=O)OCC(C)(C)C)c2ccccc2)Oc2cccc3ccccc23)[C@@H](O)[C@@]1(C)O (stereo partly drawn) [Example 70]: 0.077
COc1nc(N)nc2c1ncn2C1O[C@H](COP(=O)(N[C@H](C(=O)O[C@@H](C)c2ccccc2Br)C(C)C)Oc2cccc3ccccc23)[C@@H](O)[C@@]1(C)O (stereo partly drawn) [Example 40]: 2.9
COc1nc(N)nc2c1ncn2C1O[C@H](COP(=O)(N[C@@H](C)C(=O)OC2CCCCC2)Oc2cccc3ccccc23)[C@@H](O)[C@@]1(C)O (stereo partly drawn) [Example 25]: 0.014

Query :: Identify measured IC50 corresponding to COc1nc(N)nc2c1ncn2C1O[C@H](COP(=O)(N[C@@H](C)C(=O)OC(C)C)Oc2cccc3ccccc23)[C@@H](O)[C@@]1(C)O (stereo partly drawn) [Example 23]
Result :: 0.43

Query :: Identify measured IC50 corresponding to COc1nc(N)nc2c1ncn2C1O[C@H](COP(=O)(N[C@@H](C)C(=O)OCc2ccccc2)Oc2cccc3ccccc23)[C@@H](O)[C@@]1(C)O (stereo partly drawn) [Example 13]
Result :: 0.026

Query :: Identify measured IC50 corresponding to COc1nc(N)nc2c1ncn2C1O[C@H](COP(=O)(N[C@@H](C)C(=O)OCC(C)(C)C)Oc2cccc3ccccc23)[C@@H](O)[C@@]1(C)O (stereo partly drawn) [Example 20]
Result :: 0.001

---

Entries and their IC50
- Test system: HCV replicon (Genotype 1b)
- protocol description: Luciferase genotype 1b replicon potency assay
- measurement conditions: Hepatitis C virus, GETYPE1B, read-out: IC50 μM, HCV genotype 1b luciferase replicon, Renilla luciferase reporter
Hey, just the number and the unit after it is fine.

Worked cases, IC50 given:
COc1nc(N)nc2c1ncn2C1O[C@H](COP(=O)(N[C@H](C(=O)OCC(C)(C)C)C(C)C)Oc2cc(C(C)(C)C)cc3ccccc23)[C@@H](O)[C@@]1(C)O (some centres unmarked): 2.1 µM
C[C@H](NP(=O)(OC[C@H]1OC(n2cnc3c(NCCc4ccccc4)nc(N)nc32)[C@](C)(O)[C@@H]1O)Oc1cccc2ccccc12)C(=O)OCC(C)(C)C (some centres unmarked): 0.27 µM
COc1nc(N)nc2c1ncn2C1O[C@H](COP(=O)(N[C@H](C(=O)OCC(C)(C)C)C(C)C)Oc2cc(C(C)(C)C)cc3ccc(C(C)(C)C)cc23)[C@@H](O)[C@@]1(C)O (some centres unmarked): 2.1 µM
COc1nc(N)nc2c1ncn2C1O[C@H](CO[P@@](=O)(N[C@@H](C)C(=O)OCC(C)(C)C)Oc2cccc3ccccc23)[C@@H](O)[C@@]1(C)O (some centres unmarked): 0.043 µM

Query :: Identify measured IC50 corresponding to COc1nc(N)nc2c1ncn2C1O[C@H](COP(=O)(N[C@@H](C)C(=O)OC2CCOCC2)Oc2cccc3ccccc23)[C@@H](O)[C@@]1(C)O (some centres unmarked)
Result :: 0.08 µM

---

Entries and their IC50
- Tested on: HCV replicon (Genotype 1b)
- protocol description: Luciferase genotype 1b replicon potency assay
- measurement conditions: Hepatitis C virus, GETYPE1B, read-out: IC50 μM, HCV genotype 1b luciferase replicon, Renilla luciferase reporter
Give just the numeric value; µM need not be written.

Worked cases, IC50 given:
COc1nc(N)nc2c1ncn2C1O[C@H](COP(=O)(N[C@@H](C)C(=O)OCC(C)(C)C)Oc2ccc3ncccc3c2)[C@@H](O)[C@@]1(C)O (stereo partly drawn): 0.26
COc1nc(N)nc2c1ncn2C1O[C@H](COP(=O)(N[C@H](C(=O)O[C@@H](C)c2ccc(Br)cc2)C(C)C)Oc2cccc3ccccc23)[C@@H](O)[C@@]1(C)O (stereo partly drawn): 2.2

Query :: Identify measured IC50 corresponding to COc1nc(N)nc2c1ncn2C1O[C@H](COP(=O)(N[C@H](C(=O)OCc2ccccc2)c2ccccc2)Oc2cccc3ccccc23)[C@@H](O)[C@@]1(C)O (stereo partly drawn)
Result :: 0.028

Query :: Identify measured IC50 corresponding to CCC(C)[C@H](NP(=O)(OC[C@H]1OC(n2cnc3c(OC)nc(N)nc32)[C@](C)(O)[C@@H]1O)Oc1cccc2ccccc12)C(=O)OCC(C)(C)C (stereo partly drawn)
Result :: 0.86

Query :: Identify measured IC50 corresponding to `CSc1nc(N)nc2c1ncn2[C@@H]1O[C@H](CO)[C@@H](O)[C@@]1(C)O`
Result :: 11

Query :: Identify measured IC50 corresponding to COc1nc(N)nc2c1ncn2C1O[C@H](COP(=O)(N[C@@H](C)C(=O)OCCC(C)(C)C)Oc2cccc3ccccc23)[C@@H](O)[C@@]1(C)O (stereo partly drawn)
Result :: 0.013

---

- protocol description: in vitro
- measurement conditions: human
measurement name: CC50

Worked cases, CC50 given:
COC(=O)[C@@H](NP(=O)(OC[C@H]1OC(n2cnc3c(OC)nc(N)nc32)[C@](C)(O)[C@@H]1O)Oc1cccc2ccccc12)c1ccccc1 (stereo partly drawn) [Example 64]: > 100 µM
COc1nc(N)nc2c1ncn2C1O[C@H](COP(=O)(N[C@@H](C)C(=O)OC2CCOCC2)Oc2cccc3ncccc23)[C@@H](O)[C@@]1(C)O (stereo partly drawn) [Example 32]: > 100 µM

As a next step, examine the molecule that follows.
Query :: Identify measured CC50 corresponding to COc1nc(N)nc2c1ncn2C1O[C@H](COP(=O)(N[C@H](C(=O)OCc2ccc(F)cc2F)C(C)C)Oc2cccc3ncccc23)[C@@H](O)[C@@]1(C)O (stereo partly drawn) [Example 49]
Result :: > 100 µM

---

- protocol description: in vitro
- measurement conditions: human
measurement name: CC50 (µM)
Give just the numeric value; µM need not be written.

Worked cases, CC50 given:
COc1nc(N)nc2c1ncn2C1O[C@H](COP(=O)(N[C@@H](C)C(=O)O[C@@H](C)c2ccccc2)Oc2cccc3ccccc23)C[C@@]1(C)O (stereo partly drawn): 20
COc1nc(N)nc2c1ncn2C1O[C@H](COP(=O)(N[C@@H](C)C(=O)OC2Cc3ccccc3C2)Oc2cccc3ccccc23)[C@@H](O)[C@@]1(C)O (stereo partly drawn): 11

Query :: Identify measured CC50 corresponding to COc1nc(N)nc2c1ncn2C1O[C@H](COP(=O)(N[C@@H](C)C(=O)OC2CCCCC2)Oc2cccc3ccccc23)C[C@@]1(C)O (stereo partly drawn)
Result :: 20

---

- protocol description: in vitro
- measurement conditions: human
measurement name: CC50

CNc1nc(N)nc2c1ncn2[C@@H]1O[C@H](COP(=O)(N[C@@H](C)C(=O)OCC(C)(C)C)Oc2ccc3ncccc3c2)[C@@H](O)[C@@]1(C)O (stereo partly drawn): > 100 µM
COC(=O)[C@@H](C)c1ccc2cc(OP(=O)(N[C@@H](C)C(=O)OC3CCOCC3)OC[C@H]3OC(n4cnc5c(OC)nc(N)nc54)[C@](C)(O)[C@@H]3O)ccc2c1 (stereo partly drawn): > 100 µM

As a next step, examine the molecule that follows.
Query :: Identify measured CC50 corresponding to COc1nc(N)nc2c1ncn2C1O[C@H](COP(=O)(N[C@H](C(=O)OCc2ccc(F)cc2F)C(C)C)Oc2ccc3ncccc3c2)[C@@H](O)[C@@]1(C)O (stereo partly drawn)
Result :: > 100 µM

---

- Tested on: HCV replicon (Genotype 1b)
- protocol description: Luciferase genotype 1b replicon potency assay
- measurement conditions: Hepatitis C virus, GETYPE1B, read-out: IC50 μM, HCV genotype 1b luciferase replicon, Renilla luciferase reporter
# note: boundary value 0.04 µM maps to 0 (no); IC50 below it maps to 1 (yes)

COc1nc(N)nc2c1ncn2C1O[C@H](CO)C[C@@]1(C)O (stereo partly shown): 0 (no)

Query :: Find out if reported IC50 for COc1nc(N)nc2c1ncn2C1O[C@H](COP(=O)(N[C@@H](C)C(=O)O[C@@H](C)c2ccccc2)Oc2cccc3ccccc23)[C@@H](O)[C@@]1(C)O (stereo partly shown) is less than 0.04 µM
Result :: 1 (yes)

Query :: Find out if reported IC50 for COc1nc(N)nc2c1ncn2C1O[C@H](COP(=O)(N[C@H](C(=O)OC2CCCCC2)c2ccccc2)Oc2cccc3ccccc23)[C@@H](O)[C@@]1(C)O (stereo partly shown) is less than 0.04 µM
Result :: 0 (no)

Query :: Find out if reported IC50 for COc1nc(N)nc2c1ncn2C1O[C@H](COP(=O)(N[C@@H](C)C(=O)OCC(C)C)Oc2cccc3ccccc23)[C@@H](O)[C@@]1(C)O (stereo partly shown) is less than 0.04 µM
Result :: 1 (yes)

Query :: Find out if reported IC50 for COC(=O)[C@@H](NP(=O)(OC[C@H]1OC(n2cnc3c(OC)nc(N)nc32)[C@](C)(O)[C@@H]1O)Oc1cccc2ccccc12)C(C)C (stereo partly shown) is less than 0.04 µM
Result :: 0 (no)

Query :: Find out if reported IC50 for CSc1nc(N)nc2c1ncn2C1O[C@H](COP(=O)(N[C@@H](C)C(=O)OCC(C)(C)C)Oc2cccc3ccccc23)[C@@H](O)[C@@]1(C)O (stereo partly shown) is less than 0.04 µM
Result :: 1 (yes)

Query :: Find out if reported IC50 for CCCOC(=O)[C@H](C)NP(=O)(OC[C@H]1OC(n2cnc3c(OC)nc(N)nc32)[C@](C)(O)[C@@H]1O)Oc1cccc2ccccc12 (stereo partly shown) is less than 0.04 µM
Result :: 1 (yes)
